tested on: SF-295 CNS; assay: NCI-60 one-dose screen, 48 h (100 = growth as untreated, 0 = no growth, -100 = all killed); details: 10 µM unless noted
About 83,000 compounds went through this panel and 20% of them were active in at least one assay; those are over-represented in the sample as a whole.
Each entry below carries its recorded growth.
assay.readout: growth (%)

molecule: CC[C@H](C)[C@H](NC(=O)Nc1ccccc1)C(=O)N(C)[C@H](C[C@@H](OC(C)=O)c1nc(C(=O)N[C@@H](Cc2ccccc2)C[C@H](C)C(=O)OC)cs1)C(C)C
assay.value: 4.42

molecule: N#[N+]c1cnc([O-])[nH]c1=O
assay.value: 105

molecule: COc1ccc(OC)c(/C=C(/C)[N+](=O)[O-])c1
assay.value: 110

molecule: NC(Cc1ccc(O)cc1)C(=O)N/N=C/c1ccc(N(CCCl)CCCl)cc1 (stereo not given)
assay.value: 48.5

molecule: c1ccc(-c2ccc3ccccc3[o+]2)cc1
assay.value: 104
